system: SW-620; experiment: NCI tumour cell line growth inhibition, 48 h
Activity calls are given as the source filed them. Cut-off read from the data, not from the text of the source: active = GI50 up to about 1.1 µM and inactive = higher. Where a SMILES comes first, the peptide text is derived from it. The star is where a group is joined. Fmoc = O=C(OCC1c2ccccc2-c2ccccc21)*; Boc = CC(C)(C)OC(=O)*
READOUT LABEL: GI50

Observe how each entry below is paired with its result.
[[record]]
compound = "N/N=C(/C(=O)Nc1cccc(Cl)c1)C(C(=O)c1ccc(O)cc1O)C1OC(=O)c2ccccc21 (configuration not stated)"
test_result = "> 100 µM (inactive)"

[[record]]
compound = "COc1ncnc2c(Cl)c(C(O)c3ccccc3)c(Cl)cc12 (configuration not stated)"
test_result = "25.6 µM (inactive)"

[[record]]
compound = "Cc1n(-c2ccccc2)c2c([n+]1Cc1ccc([N+](=O)[O-])cc1)C(=O)c1ccccc1C2=O"
test_result = "2.12 µM (inactive)"

[[record]]
compound = "c1ccc2c(c1)ccc1nc(-c3ccc4c(c3)OCO4)c3c(c12)CCCC3"
test_result = "29.2 µM (inactive)"

[[record]]
compound = "CCCNC(=O)c1cc(NC(=O)c2cc(NC(=O)/C=C/c3ccccc3)c(OC)c(OC)c2)c(OC)c(OC)c1"
test_result = "> 100 µM (inactive)"

[[record]]
compound = "Cc1cc(N(CCOS(C)(=O)=O)CCOS(C)(=O)=O)ccc1/C=N/c1ccc(-c2csc(-c3ccccc3)n2)c(Cl)c1"
test_result = "5.2 µM (inactive)"


Lookup: Entry Fc1ccc(C2NC(=S)NC3=C2CCOc2c3ccc3ccccc23)cc1 (configuration not stated) : reported GI50 = ?
Found: 39.1 µM (inactive)

Lookup: Entry "Cc1ccc(O)c(C(=O)/C=C/c2ccccc2)c1" : reported GI50 = ?
Found: > 100 µM (inactive)

Lookup: Entry O=C1C2Cc3ccccc3CN2C(=O)N1CCN1CCCC1 (configuration not stated) : reported GI50 = ?
Found: > 100 µM (inactive)

Lookup: Entry CC(C)(C)OC(=O)NCCCCC(NC(=O)C(Cc1c[nH]c2ccccc12)NC(=O)OCC1c2ccccc2-c2ccccc21)C(=O)O (configuration not stated) (Fmoc-Trp-Lys(Boc)-OH; configuration not given here) : reported GI50 = ?
Found: 48.3 µM (inactive)

Lookup: Entry CCCC(=O)NC(Nc1ccc(S(=O)(=O)Nc2cc(C)on2)cc1)(C(=O)OCC)C(F)(F)F (configuration not stated) : reported GI50 = ?
Found: > 100 µM (inactive)

Lookup: Entry "O=C(/C=C/c1ccc(O)cc1)c1cc(-c2cc(CCC(=O)c3ccc(O)cc3O)ccc2O)c(O)cc1O" : reported GI50 = ?
Found: 29.9 µM (inactive)

Lookup: Entry CC1=NN(C(=O)c2ccc(C)cc2)C(=O)C1/N=N/c1ccccc1C(=O)O (configuration not stated) : reported GI50 = ?
Found: > 100 µM (inactive)

Lookup: Entry COc1ccc(N2C(=O)C3c4[nH]c5c(C)cccc5c4C4CCC(c5ccccc5)CC4C3C2=O)cc1 (configuration not stated) : reported GI50 = ?
Found: 9.23 µM (inactive)

Lookup: Entry "CCOC(=O)c1cn(CC)c2cc3c(cc2c1=O)CCS3(=O)=O" : reported GI50 = ?
Found: > 100 µM (inactive)

Lookup: Entry COC(OC)C(O)C1OC=CC1n1cnc2c(N)ncnc21 (configuration not stated) : reported GI50 = ?
Found: > 100 µM (inactive)

Lookup: Entry "Cc1cc2occ(C)c(=O)c2c2c1OC(C)(C)S2" : reported GI50 = ?
Found: > 100 µM (inactive)

Lookup: Entry "COC(=O)[C@]12CSC[C@H]1C[C@H](c1cccc3ccccc13)N2" : reported GI50 = ?
Found: > 100 µM (inactive)

Lookup: Entry "Cc1occc1C(=S)Nc1ccc(Cl)c(C(=O)OCC(C)C)c1" : reported GI50 = ?
Found: 19.2 µM (inactive)

Lookup: Entry "CC(C)(CO)NC(=O)Nc1c(C(F)(F)F)cc(-c2ccccc2)[nH]c1=O" : reported GI50 = ?
Found: > 100 µM (inactive)

Lookup: Entry "O=N/N=c1\o[n-][n+](CCc2ccccc2)c1Cc1/c(=N/N=O)o[n-][n+]1CCc1ccccc1" : reported GI50 = ?
Found: 89.7 µM (inactive)

Lookup: Entry "O=c1nc2n(CCO)c(-c3ccccc3)c(-c3ccccc3)nc-2c(=O)[nH]1" : reported GI50 = ?
Found: > 100 µM (inactive)

Lookup: Entry CC(C(=O)O)c1cnn(-c2ccccc2)c1-n1cccc1 (configuration not stated) : reported GI50 = ?
Found: > 63 µM (inactive)

Lookup: Entry "COc1ccc(-c2c3c(nc4nc(SCC(=O)c5ccc(Br)cc5)nc(N)c24)CCCC3)cc1OC" : reported GI50 = ?
Found: 74.5 µM (inactive)

Lookup: Entry C/C(=C(/C)c1ccc(O)cc1)c1ccc(O)cc1 [DIMETHYLSTILBESTROL] : reported GI50 = ?
Found: > 100 µM (inactive)

Lookup: Entry "COc1ccc(NC(=O)C2=CC(=O)c3ccc(O)cc3C2=O)c(OC)c1" : reported GI50 = ?
Found: > 100 µM (inactive)

Lookup: Entry "Cc1ccc2c(c1)C(=O)/C(=C\c1ccc(Cl)cc1)CCS2(=O)=O" : reported GI50 = ?
Found: 3.18 µM (inactive)
